- MEASUREMENT_NOTES: Pharmacokinetic test, oral or intravenous administration
- Format: in vivo
- EXPERIMENTAL_CONDITIONS: mouse, blood; oral administration, 20 mg/kg, mice
READOUT: Cmax (ng/mL)

SUBSTANCE_SMILES	READOUT	UNITS_OF_MEASURE	MEAS_VALUE
CN(c1ncnc2[nH]ccc12)[C@@H]1CCN(C(=O)CC#N)C1.Cl	Cmax	ng/mL	4530

----------
- TARGET_UNDER_TEST: Human TYK2 (Homo sapiens, UniProt P29597)
- Sequence (P29597 whole entry): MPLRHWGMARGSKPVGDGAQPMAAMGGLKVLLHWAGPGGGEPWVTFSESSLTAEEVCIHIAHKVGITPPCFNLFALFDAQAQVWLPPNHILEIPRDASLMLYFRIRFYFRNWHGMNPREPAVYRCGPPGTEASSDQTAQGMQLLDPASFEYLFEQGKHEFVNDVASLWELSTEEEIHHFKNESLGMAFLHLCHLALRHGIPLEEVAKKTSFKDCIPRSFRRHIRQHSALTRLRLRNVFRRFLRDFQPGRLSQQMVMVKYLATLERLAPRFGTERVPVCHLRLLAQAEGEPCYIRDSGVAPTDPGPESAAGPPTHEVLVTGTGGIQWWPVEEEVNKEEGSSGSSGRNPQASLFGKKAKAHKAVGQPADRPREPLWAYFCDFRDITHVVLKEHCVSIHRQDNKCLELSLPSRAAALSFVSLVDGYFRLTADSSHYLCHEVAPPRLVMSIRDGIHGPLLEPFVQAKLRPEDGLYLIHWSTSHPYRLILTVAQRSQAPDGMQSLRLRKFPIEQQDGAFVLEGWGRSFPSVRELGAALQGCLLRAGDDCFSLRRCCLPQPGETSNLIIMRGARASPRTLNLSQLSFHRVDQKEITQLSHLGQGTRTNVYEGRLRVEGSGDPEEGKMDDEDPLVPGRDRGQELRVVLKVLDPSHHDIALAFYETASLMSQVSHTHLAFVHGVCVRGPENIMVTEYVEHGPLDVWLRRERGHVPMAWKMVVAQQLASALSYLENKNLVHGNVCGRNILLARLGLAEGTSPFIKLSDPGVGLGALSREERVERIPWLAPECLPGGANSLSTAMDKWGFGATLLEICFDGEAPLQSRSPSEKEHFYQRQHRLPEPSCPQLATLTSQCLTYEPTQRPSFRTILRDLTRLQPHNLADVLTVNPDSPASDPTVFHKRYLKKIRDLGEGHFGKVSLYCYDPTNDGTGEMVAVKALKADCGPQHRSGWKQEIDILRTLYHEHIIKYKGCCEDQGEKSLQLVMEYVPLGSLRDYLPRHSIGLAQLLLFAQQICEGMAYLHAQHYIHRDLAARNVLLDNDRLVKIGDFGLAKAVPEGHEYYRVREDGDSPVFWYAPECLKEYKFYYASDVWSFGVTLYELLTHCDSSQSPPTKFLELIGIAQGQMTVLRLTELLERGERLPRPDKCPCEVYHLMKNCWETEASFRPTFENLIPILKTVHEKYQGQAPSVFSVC
pIC50: −log10 of the molar value.

SUBSTANCE_SMILES	pIC50
CN(c1ncnc2[nH]ccc12)C1CCN(S(=O)(=O)c2ccccc2)CC1	7.73

----------
Each entry below carries its reported JAK1/JAK2.
- TARGET_UNDER_TEST: Human JAK1 (Homo sapiens, UniProt P23458)
- Construct: purchased Millipore, Germany
- Sequence (P23458 whole entry): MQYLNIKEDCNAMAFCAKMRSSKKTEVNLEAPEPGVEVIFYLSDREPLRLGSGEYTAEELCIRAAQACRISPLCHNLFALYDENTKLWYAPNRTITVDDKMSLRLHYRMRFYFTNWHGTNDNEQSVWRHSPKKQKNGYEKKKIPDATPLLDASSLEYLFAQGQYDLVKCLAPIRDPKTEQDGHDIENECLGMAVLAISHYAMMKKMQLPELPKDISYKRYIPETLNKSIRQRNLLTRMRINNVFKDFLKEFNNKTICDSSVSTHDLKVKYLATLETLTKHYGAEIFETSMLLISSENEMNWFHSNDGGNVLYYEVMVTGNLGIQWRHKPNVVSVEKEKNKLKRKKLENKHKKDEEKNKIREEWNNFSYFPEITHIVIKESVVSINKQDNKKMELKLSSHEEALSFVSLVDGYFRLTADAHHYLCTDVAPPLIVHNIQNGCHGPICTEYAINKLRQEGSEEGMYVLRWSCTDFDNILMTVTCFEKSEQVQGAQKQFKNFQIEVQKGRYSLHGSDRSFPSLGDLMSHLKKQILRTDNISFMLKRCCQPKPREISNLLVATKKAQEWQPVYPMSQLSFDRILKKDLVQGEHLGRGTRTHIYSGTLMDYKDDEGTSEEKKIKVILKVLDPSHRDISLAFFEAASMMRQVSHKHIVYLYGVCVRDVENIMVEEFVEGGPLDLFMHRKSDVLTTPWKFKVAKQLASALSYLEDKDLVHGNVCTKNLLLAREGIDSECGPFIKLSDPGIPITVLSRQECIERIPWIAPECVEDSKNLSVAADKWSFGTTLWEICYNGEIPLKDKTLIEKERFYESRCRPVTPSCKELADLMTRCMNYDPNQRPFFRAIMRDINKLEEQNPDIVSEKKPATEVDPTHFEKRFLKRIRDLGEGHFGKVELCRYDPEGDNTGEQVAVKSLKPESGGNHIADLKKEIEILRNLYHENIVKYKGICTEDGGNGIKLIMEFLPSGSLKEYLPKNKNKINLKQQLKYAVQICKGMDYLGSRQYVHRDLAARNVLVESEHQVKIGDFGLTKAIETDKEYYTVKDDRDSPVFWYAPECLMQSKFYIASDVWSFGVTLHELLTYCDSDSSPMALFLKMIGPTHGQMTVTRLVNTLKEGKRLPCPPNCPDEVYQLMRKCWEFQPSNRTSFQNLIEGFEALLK
- MEASUREMENT_NOTES: In-vitro kinase inhibition test, JAK1
- Assay type: biochemical
- EXPERIMENTAL_CONDITIONS: ratio of % inhibition of JAK1 to JAK2 at 1 uM

COMPOUND	JAK1/JAK2
CN(c1ncnc2[nH]ccc12)[C@@H]1CCN(S(=O)(=O)c2cccc([N+](=O)[O-])c2)C1	1.03
CN(c1ncnc2[nH]ccc12)[C@@H]1CCN(S(=O)(=O)c2ccc(C(F)(F)F)cc2)C1	4.57
CCS(=O)(=O)N1CC[C@@H](N(C)c2ncnc3[nH]ccc23)C1	3.48
Cc1ccc(S(=O)(=O)N2CC[C@@H](N(C)c3ncnc4[nH]ccc34)C2)cc1	2.31
CN(c1ncnc2[nH]ccc12)[C@@H]1CCN(S(=O)(=O)c2cccc(C#N)c2)C1	1.22
CCN(c1ncnc2[nH]ccc12)[C@@H]1CCN(C(=O)CC#N)C1	1.07
CN(c1ncnc2[nH]ccc12)[C@@H]1CCN(S(=O)(=O)c2ccccc2F)C1	1.48
CN(c1ncnc2[nH]ccc12)[C@@H]1CCN(S(=O)(=O)c2ccc(C#N)cc2)C1	2.11
N#CCC(=O)N1CC[C@@H](N(CC2CC2)c2ncnc3[nH]ccc23)C1	2.59
CN(c1ncnc2[nH]ccc12)[C@@H]1CCN(S(=O)(=O)c2cn(C)cn2)C1	5.78
CN(c1ncnc2[nH]ccc12)[C@@H]1CCN(S(=O)(=O)N2CCOCC2)C1	14.50
N#CCC(=O)N1CCCC(COc2ncnc3[nH]ccc23)C1 (centres unmarked)	3.00
CN(c1ncnc2[nH]ccc12)[C@H]1CN(C(=O)CC#N)CC1(C)C	4.53
CN(c1ncnc2[nH]ccc12)[C@@H]1CCN(S(=O)(=O)c2ccc(F)cc2)C1	1.22
N#Cc1cccc(S(=O)(=O)N2CCCC(COc3ncnc4[nH]ccc34)C2)c1 (centres unmarked)	1.47
CN(c1ncnc2[nH]ccc12)[C@@H]1CCN(S(C)(=O)=O)C1	13.00

----------
Each entry below carries its reported inhibition at 1 µM.
- TARGET_UNDER_TEST: Human JAK2 (Homo sapiens)
- Construct: purchased Millipore, Germany
- Sequence (O60674 whole entry): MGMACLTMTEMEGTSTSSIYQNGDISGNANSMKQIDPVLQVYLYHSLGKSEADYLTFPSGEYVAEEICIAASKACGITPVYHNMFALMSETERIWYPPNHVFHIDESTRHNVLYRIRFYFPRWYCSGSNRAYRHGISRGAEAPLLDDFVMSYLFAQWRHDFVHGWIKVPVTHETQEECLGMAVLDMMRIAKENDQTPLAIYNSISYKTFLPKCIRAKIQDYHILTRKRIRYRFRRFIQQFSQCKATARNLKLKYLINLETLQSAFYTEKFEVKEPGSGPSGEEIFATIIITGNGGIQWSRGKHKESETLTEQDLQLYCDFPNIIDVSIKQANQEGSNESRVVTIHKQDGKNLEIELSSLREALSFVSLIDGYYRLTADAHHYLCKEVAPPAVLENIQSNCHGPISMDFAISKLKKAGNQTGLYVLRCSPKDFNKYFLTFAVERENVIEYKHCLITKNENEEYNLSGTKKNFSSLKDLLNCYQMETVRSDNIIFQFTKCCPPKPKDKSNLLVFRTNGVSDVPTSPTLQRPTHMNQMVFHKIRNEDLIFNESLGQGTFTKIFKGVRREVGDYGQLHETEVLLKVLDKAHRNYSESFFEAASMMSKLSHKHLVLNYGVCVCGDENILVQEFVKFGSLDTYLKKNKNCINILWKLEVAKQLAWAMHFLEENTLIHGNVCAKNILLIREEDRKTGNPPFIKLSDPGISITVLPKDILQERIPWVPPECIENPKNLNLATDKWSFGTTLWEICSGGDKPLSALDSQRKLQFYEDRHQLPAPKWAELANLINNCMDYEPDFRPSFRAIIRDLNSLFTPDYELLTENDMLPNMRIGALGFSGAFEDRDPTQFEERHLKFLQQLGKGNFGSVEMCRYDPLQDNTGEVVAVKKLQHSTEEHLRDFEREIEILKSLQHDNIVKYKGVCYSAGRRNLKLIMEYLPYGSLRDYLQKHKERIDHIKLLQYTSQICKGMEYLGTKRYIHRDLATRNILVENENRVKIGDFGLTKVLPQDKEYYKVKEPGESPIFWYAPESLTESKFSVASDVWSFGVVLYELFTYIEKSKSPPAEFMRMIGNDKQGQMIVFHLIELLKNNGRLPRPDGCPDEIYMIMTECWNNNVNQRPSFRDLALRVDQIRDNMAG
- MEASUREMENT_NOTES: In-vitro kinase inhibition test, JAK2
- Type: biochemical
- EXPERIMENTAL_CONDITIONS: compound at 1 uM; read-out: JAK2 kinase-phosphorylation inhibitory level (% inhibition)
READOUT: inhibition at 1 µM (%)

COMPOUND	READOUT	UNITS_OF_MEASURE	MEAS_VALUE
CN(c1ncnc2[nH]ccc12)[C@@H]1CCN(S(=O)(=O)c2ccc([N+](=O)[O-])cc2)C1 [Example 23]	inhibition at 1 µM	%	84
N#Cc1cccc(S(=O)(=O)N2CCCC(COc3ncnc4[nH]ccc34)C2)c1 (centres unmarked) [Example 48]	inhibition at 1 µM	%	17
CN(c1ncnc2[nH]ccc12)[C@@H]1CCN(S(=O)(=O)N2CCCCC2)C1 [Example 29]	inhibition at 1 µM	%	21
CC(C)COC(=O)N1CC[C@@H](N(C)c2ncnc3[nH]ccc23)C1 [Example 6]	inhibition at 1 µM	%	9
CC(C)CC(=O)N1CC[C@@H](N(C)c2ncnc3[nH]ccc23)C1 [Example 5]	inhibition at 1 µM	%	13
C[C@@H]1CCN(S(=O)(=O)c2cccc(C#N)c2)C[C@@H]1N(C)c1ncnc2[nH]ccc12 [Example 42]	inhibition at 1 µM	%	79
CN(c1ncnc2[nH]ccc12)[C@@H]1CCN(C(=O)CC#N)C1 [Example 1]	inhibition at 1 µM	%	70
CN(c1ncnc2[nH]ccc12)[C@@H]1CCN(S(=O)(=O)c2cccc(C#N)c2)C1 [Example 19]	inhibition at 1 µM	%	81
CN(c1ncnc2[nH]ccc12)[C@@H]1CCN(S(=O)(=O)c2ccc3ccccc3c2)C1 [Example 28]	inhibition at 1 µM	%	57
CN(c1ncnc2[nH]ccc12)[C@@H]1CCN(S(=O)(=O)N2CCOCC2)C1 [Example 30]	inhibition at 1 µM	%	6
CN(c1ncnc2[nH]ccc12)[C@@H]1CCN(C(=O)Nc2ccccc2)C1 [Example 7]	inhibition at 1 µM	%	68
N#CCC(=O)N1C[C@H]2CCCN(c3ncnc4[nH]ccc34)[C@H]2C1 [Example 49]	inhibition at 1 µM	%	-7
CCCCN1CC[C@@H](N(C)c2ncnc3[nH]ccc23)C1 [Example 3]	inhibition at 1 µM	%	6
CN(c1ncnc2[nH]ccc12)[C@@H]1CCCN(S(=O)(=O)c2cccc(C#N)c2)C1 [Example 41]	inhibition at 1 µM	%	64
